Just for reference, patent US10774102B2 is where these values come from.

method_description: Pharmacokinetic studies in mice
setup_conditions: mouse, in vivo, read-out: Halflife (t½) (converted)
outcome_measure: half-life (h)

{"columns": ["smiles_structure", "assay_value"],
 "data": [
  ["OC[C@H]1O[C@H](Sc2ccc(Cl)c(Cl)c2)[C@H](O)[C@@H](n2cc(-c3cc(F)c(F)c(F)c3)nn2)[C@H]1O", 4.5]
]}

###

system_tested: galectin-3 (Homo sapiens (Human), UniProt P17931)
Sequence (P17931 whole entry): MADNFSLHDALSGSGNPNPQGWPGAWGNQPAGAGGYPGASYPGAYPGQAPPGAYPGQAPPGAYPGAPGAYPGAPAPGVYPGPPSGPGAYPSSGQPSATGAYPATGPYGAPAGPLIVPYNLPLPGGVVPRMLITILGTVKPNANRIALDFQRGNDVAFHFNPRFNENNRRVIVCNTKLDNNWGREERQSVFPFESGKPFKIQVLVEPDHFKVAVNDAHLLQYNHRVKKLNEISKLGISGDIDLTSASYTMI
pKd: −log10 of the molar value.
Group membership follows pKd per the scheme class 0: < 6; class 1: ≥ 6 and < 7; class 2: ≥ 7

{"columns": ["compound", "system_tested", "class_label"],
 "data": [
  ["OC[C@H]1O[C@H](Sc2cccc(Br)c2)[C@H](O)[C@@H](n2cc(-c3cc(F)c(F)c(F)c3)nn2)[C@H]1O [Example 2]", "galectin-3 (Homo sapiens (Human), UniProt P17931)", "class 2"],
  ["OC[C@H]1O[C@H](Sc2ccccc2)[C@H](O)[C@@H](n2cc(-c3cc(F)c(F)c(F)c3)nn2)[C@H]1O [Example 27]", "galectin-3 (Homo sapiens (Human), UniProt P17931)", "class 1"],
  ["[O-][S+](c1cncc(Br)c1)[C@H]1O[C@H](CO)[C@H](O)[C@H](n2cc(-c3cc(F)c(F)c(F)c3)nn2)[C@H]1O (single isomer, unassigned; isomer 1) [Example 90]", "galectin-3 (Homo sapiens (Human), UniProt P17931)", "class 2"],
  ["O=C(N[C@@H]1C(O)[C@@H](Sc2ccc(Cl)c(Cl)c2)OC(CO)[C@@H]1O)c1cc(F)c(F)c(F)c1 (stereo partly shown) [Example 96]", "galectin-3 (Homo sapiens (Human), UniProt P17931)", "class 0"],
  ["OC[C@H]1O[C@H](Sc2cccc(O)c2)[C@H](O)[C@@H](n2cc(-c3cc(F)c(F)c(F)c3)nn2)[C@H]1O [Example 38]", "galectin-3 (Homo sapiens (Human), UniProt P17931)", "class 1"],
  ["OC[C@H]1O[C@H](Sc2ccc(OC(F)(F)F)cc2)[C@H](O)[C@@H](n2cc(-c3cc(F)c(F)c(F)c3)nn2)[C@H]1O [Example 31]", "galectin-3 (Homo sapiens (Human), UniProt P17931)", "class 1"],
  ["[O-][S+](c1ccc(Cl)c(Cl)c1)[C@H]1O[C@H](CO)[C@H](O)[C@H](n2cc(-c3cc(F)c(F)c(F)c3)nn2)[C@H]1O (stereo partly shown) [Example 24]", "galectin-3 (Homo sapiens (Human), UniProt P17931)", "class 2"],
  ["OC[C@H]1O[C@H](Oc2ccc(Cl)c(Cl)c2)[C@H](O)[C@@H](n2cc(-c3cc(F)c(F)c(F)c3)nn2)[C@H]1O [Example 22]", "galectin-3 (Homo sapiens (Human), UniProt P17931)", "class 1"],
  ["CCOC(=O)c1cn([C@@H]2[C@@H](O)[C@@H](Sc3ccc(Cl)c(Cl)c3)O[C@H](CO)[C@@H]2O)nn1 [Example 97]", "galectin-3 (Homo sapiens (Human), UniProt P17931)", "class 0"],
  ["OC[C@H]1O[C@H](Sc2cc(Cl)c(Cl)cc2Cl)[C@H](O)[C@@H](n2cc(-c3cc(F)c(F)c(F)c3)nn2)[C@H]1O [Example 36]", "galectin-3 (Homo sapiens (Human), UniProt P17931)", "class 2"],
  ["OC[C@H]1O[C@H](Sc2ccc(Br)cc2)[C@H](O)[C@@H](n2cc(-c3cc(F)c(F)c(F)c3)nn2)[C@H]1O [Example 15]", "galectin-3 (Homo sapiens (Human), UniProt P17931)", "class 1"]
]}

###

system_tested: galectin-3 (Homo sapiens (Human), UniProt P17931)
Kd: recorded values
outcome_measure: Kd (nM)

{"columns": ["compound", "system_tested", "outcome_measure", "assay_value"],
 "data": [
  ["[O-][S+](c1cccc(Br)c1)[C@H]1O[C@H](CO)[C@H](O)[C@H](n2cc(-c3cc(F)c(F)c(F)c3)nn2)[C@H]1O (some centres unmarked)", "galectin-3 (Homo sapiens (Human), UniProt P17931)", "Kd", 23],
  ["O=c1oc2ccc(F)c(F)c2cc1CO[C@@H]1[C@@H](O)[C@@H](Sc2ccc(Cl)c(Cl)c2)O[C@H](CO)[C@@H]1O", "galectin-3 (Homo sapiens (Human), UniProt P17931)", "Kd", 920],
  ["COc1ccc(Cl)cc1S[C@H]1OC(CO)[C@H](O)[C@H](n2cc(-c3cc(F)c(F)c(F)c3)nn2)C1O (some centres unmarked)", "galectin-3 (Homo sapiens (Human), UniProt P17931)", "Kd", 84],
  ["OC[C@H]1O[C@H](Sc2cccc(OC(F)(F)F)c2)[C@H](O)[C@@H](n2cc(-c3cc(F)c(F)c(F)c3)nn2)[C@H]1O", "galectin-3 (Homo sapiens (Human), UniProt P17931)", "Kd", 500],
  ["[O-][S+](c1cncc(Br)c1)[C@H]1O[C@H](CO)[C@H](O)[C@H](n2cc(-c3cc(F)c(F)c(F)c3)nn2)[C@H]1O (single isomer, unassigned; isomer 2) [Example 91]", "galectin-3 (Homo sapiens (Human), UniProt P17931)", "Kd", 130],
  ["Cc1cccc(C)c1S[C@H]1O[C@H](CO)[C@H](O)[C@H](n2cc(-c3cc(F)c(F)c(F)c3)nn2)[C@H]1O", "galectin-3 (Homo sapiens (Human), UniProt P17931)", "Kd", 1580],
  ["OCC1O[C@H](SCc2ccccc2)C(O)[C@@H](n2cc(-c3cc(F)c(F)c(F)c3)nn2)[C@H]1O (some centres unmarked)", "galectin-3 (Homo sapiens (Human), UniProt P17931)", "Kd", 1130],
  ["OC[C@H]1O[C@H](Sc2ccc(F)c(Cl)c2)[C@H](O)[C@@H](n2cc(-c3cc(F)c(F)c(F)c3)nn2)[C@H]1O", "galectin-3 (Homo sapiens (Human), UniProt P17931)", "Kd", 48]
]}

###

method_description: Pharmacokinetic studies in mice
setup_conditions: mouse, in vivo, 10 mg/kg, oral, read-out: Bioavailability (F)

{"columns": ["compound", "unit_of_measure", "bioavailability"],
 "data": [
  ["OC[C@H]1O[C@H](Sc2ccc(Cl)c(Cl)c2)[C@H](O)[C@@H](n2cc(-c3cc(F)c(F)c(F)c3)nn2)[C@H]1O [Example 9]", "%", 75]
]}

###

system_tested: galectin-3 (Homo sapiens (Human), UniProt P17931)
pKd: −log10 of the molar value.
This listing pairs compounds with measured pKd.
outcome_measure: pKd

{"columns": ["compound", "assay_value"],
 "data": [
  ["OC[C@H]1O[C@H](Oc2ccccc2)[C@H](O)[C@@H](n2cc(-c3cc(F)c(F)c(F)c3)nn2)[C@H]1O", 6.00],
  ["Cc1cccc(S[C@H]2O[C@H](CO)[C@H](O)[C@H](n3cc(-c4cc(F)c(F)c(F)c4)nn3)[C@H]2O)c1", 6.62],
  ["OC[C@H]1O[C@H](Sc2ccc(F)c(Br)c2)[C@H](O)[C@@H](n2cc(-c3cc(F)c(F)c(F)c3)nn2)[C@H]1O", 7.62],
  ["OC[C@H]1O[C@H](Sc2ccc(Cl)cc2Cl)[C@H](O)[C@@H](n2cc(-c3cc(F)c(F)c(F)c3)nn2)[C@H]1O", 6.19],
  ["OCC1O[C@H](Sc2ccccn2)C(O)[C@@H](n2cc(-c3cc(F)c(F)c(F)c3)nn2)[C@H]1O (stereo partly shown)", 6.29],
  ["OC[C@H]1O[C@H](Sc2cccc(Cl)c2Cl)[C@H](O)[C@@H](n2cc(-c3cc(F)c(F)c(F)c3)nn2)[C@H]1O", 6.28],
  ["CCCC(=O)c1cn([C@@H]2[C@@H](O)[C@@H](Sc3ccc(Cl)c(Cl)c3)O[C@H](CO)[C@@H]2O)nn1", 6.00]
]}

###

method_description: Pharmacokinetic studies in mice
setup_conditions: mouse, in vivo, po, 10 mg/kg
From the text: This is exemplified by Example 9 3,4-Dichlorophenyl 3-deoxy-3-[4-(3,4,5-trifluorophenyl)-1H-1,2,3-triazol-1-yl]-1-thio-α-D-galactopyranoside in the table below.

{"columns": ["compound", "Cmax (µM)"],
 "data": [
  ["OC[C@H]1O[C@H](Sc2ccc(Cl)c(Cl)c2)[C@H](O)[C@@H](n2cc(-c3cc(F)c(F)c(F)c3)nn2)[C@H]1O [Example 9]", 16]
]}
